Listed next: entries and their corresponding GI50.
Tested on: HL-60(TB)
Experiment Summary: cells
Format: cell-based
Protocol Conditions: Homo sapiens, HL-60
Give just the numeric value; µM need not be written.

>  <Compound>
CC(=O)Nc1ccc(/C=C/C(=O)c2cccc(NCc3ccc(C)cc3)c2)cc1 [Compound 5f]

>  <Target Entity>
HL-60(TB)

>  <Unit Of Measure>
µM

>  <GI50>
3.99

$$$$
>  <Compound>
CC(=O)Nc1ccc(/C=C/C(=O)c2cccc(NCc3ccc(NC(C)=O)cc3)c2)cc1 [Compound 5g]

>  <Target Entity>
HL-60(TB)

>  <Unit Of Measure>
µM

>  <GI50>
7.08

$$$$
>  <Compound>
CC(=O)Nc1ccc(/C=C/C(=O)c2cccc(NCc3csc4ccccc34)c2)cc1 [Compound 5i]

>  <Target Entity>
HL-60(TB)

>  <Unit Of Measure>
µM

>  <GI50>
3.53

$$$$

Request: Would you kindly share the measured GI50 for COc1ccc(CNc2cccc(C(=O)/C=C/c3cccnc3)c2)cc1OC [Compound 5c] ?
Response: 2.78

Request: Please do the same for Cc1ccc(CNc2cccc(C(=O)/C=C/c3cccnc3)c2)cc1 [Compound 5a] as well.
Response: 6.25

# credit: paper PMC11003488
